- Tested on: Vero E6
- Protocol Text: cell viability relative to DMSO; higher = less toxic
- Condition Label: 72 h; 1000 nM
Field: cell viability. Provide a value for each of the compounds that follow.
Quick reminder: number only, in %, skip the unit.

INPUT: Need cell viability of O=C(CCCl)NCCc1ccccc1 [fenaclon] , thanks.
OUTPUT: 103

INPUT: Now this one: C[C@]12CC[C@H](O)C[C@H]1CC[C@@H]1[C@@H]2CC[C@]2(C)[C@@H](c3ccc(=O)oc3)C[C@H]3O[C@]132 [resibufogenin]
OUTPUT: 11.3

INPUT: Now this one: CCNC(=O)N1CCN(CCCC(c2ccc(F)cc2)c2ccc(F)cc2)CC1 [amperozide]
OUTPUT: 99.2

INPUT: Now this one: On1ncc(C2CCNCC2)c1-c1cccc(-c2ccccc2)c1 [PHP-501]
OUTPUT: 89.9

INPUT: Now this one: O=C(COc1cccc2c(=O)[nH]ccc12)c1ccccc1 [UPF-1069]
OUTPUT: 93.8

INPUT: Now this one: C=C1CC[C@@H]2[C@](C)(CO)[C@H](O)CC[C@@]2(C)[C@@H]1C/C=C1/C(=O)OC[C@H]1O [andrographolide]
OUTPUT: 112

INPUT: Now this one: O=C(NCCCN1CCC2(CC1)OCc1ccccc12)[C@H]1CCCN1Cc1ccccc1 [BAN-ORL-24]
OUTPUT: 93.2

INPUT: Now this one: CCC1(c2ccc(N)cc2)CCC(=O)NC1=O (centres undefined) [aminoglutethimide]
OUTPUT: 86.9

INPUT: Now this one: CC(=O)Nc1ccc(Cc2ccc(NC(C)=O)cc2)cc1 [FH1]
OUTPUT: 102

----------
- Tested on: Caco-2
- Protocol Text: cell viability relative to DMSO; higher = less toxic
- Condition Label: 72 h; 100 nM
Field: cell viability. Provide a value for each of the molecules that follow.
Quick reminder: number only, in %, skip the unit.

INPUT: Need cell viability of N#C/C(=C\c1ccc(O)cc1)C(=O)O , thanks.
OUTPUT: 102

INPUT: Now this one: CC(=O)N(c1onc(C)c1C)S(=O)(=O)c1ccc(N)cc1
OUTPUT: 110

INPUT: Now this one: CCOCc1cc(OC)c(-c2ccc(C[C@H](NC(=O)c3c(F)cccc3F)C(=O)O)cc2)c(OC)c1
OUTPUT: 104

INPUT: Now this one: CC1(C)CCC(C)(C)c2cc(C#Cc3ccc(C(=O)O)cc3)ccc21
OUTPUT: 89.1

INPUT: Now this one: CCNC1=Nc2ccc(Cl)cc2C(C)(c2ccccc2)O1 (stereo not given)
OUTPUT: 96.1

----------
- System: U2OS
- Protocol Text: cell viability relative to DMSO; higher = less toxic
- Condition Label: 72 h; 1 nM
Recorded Metric: cell viability
Answer with the figure and its unit, nothing else.

INPUT: // lookup cell viability | system=U2OS | key= Cc1ccc(N(CC2=NCCN2)c2cccc(O)c2)cc1
OUTPUT: 99.3%

INPUT: Now this one: c1ccc(-c2n[nH]cc2-c2ccnc3ccccc23)nc1
OUTPUT: 94.1%

INPUT: Now this one: O=C1c2c(O)cc(O)cc2O[C@H](c2ccc(O)c(O)c2)[C@H]1O
OUTPUT: 95.2%

INPUT: Now this one: Cc1ccc(S(=O)(=O)NC(=O)NN2CCCCCC2)cc1 [tolazamide]
OUTPUT: 100%

INPUT: Now this one: C[C@]12CCC(=O)C[C@@H]1CC[C@@H]1[C@@H]2CC[C@]2(C)C=CC[C@@H]12
OUTPUT: 94.5%

INPUT: Now this one: Cc1cc(=O)n(-c2ccccc2)[nH]1 [N-demethylantipyrine]
OUTPUT: 101%

INPUT: Now this one: O=C(c1c(O)nc2cc(Cl)ccc2c1O)C1CC1
OUTPUT: 99.9%

INPUT: Now this one: CN1C(=O)N[C@H](Cc2c[nH]c3c(Cl)cccc23)C1=O
OUTPUT: 103%

INPUT: Now this one: O=C1C(O)=C(O)C(=O)C(O)=C1O
OUTPUT: 99.9%

INPUT: Now this one: CO[C@@H]1COCC[C@@H]1N[C@@H]1CC[C@@](C(=O)N2CCc3ncc(C(F)(F)F)cc3C2)(C(C)C)C1
OUTPUT: 98.8%

INPUT: Now this one: Cn1ncc2c(N3CCOCC3)nc(-c3cccc(O)c3)nc21
OUTPUT: 98.8%

INPUT: Now this one: C=CC[C@@H]1/C=C(\C)C[C@H](C)C[C@H](OC)[C@H]2O[C@@](O)(C(=O)C(=O)N3CCCC[C@H]3C(=O)O[C@H](/C(C)=C/[C@@H]3CC[C@@H](O)[C@H](OC)C3)[C@H](C)[C@@H](O)CC1=O)[C@H](C)C[C@@H]2OC
OUTPUT: 96.9%

INPUT: Now this one: CNC(=O)O[C@H]1COc2ccc(N3CCN(C4COC4)CC3)cc2[C@@H]1NC(=O)c1ccc(F)cc1
OUTPUT: 96.6%

INPUT: Now this one: COc1cc2ncnc(Nc3cccc(Br)c3)c2cc1OC
OUTPUT: 93.7%

INPUT: Now this one: Nc1ccccc1S(N)(=O)=O [2-aminobenzenesulfonamide]
OUTPUT: 103%

INPUT: Now this one: Cn1c(C#N)ccc1-c1ccc2c(c1)C(C)(C)OC(=S)N2
OUTPUT: 102%

INPUT: Now this one: COc1ccc(-n2nc(C(F)(F)F)cc2-c2ccc(Cl)cc2)cc1
OUTPUT: 102%

INPUT: Now this one: CC1(C)CCC(C)(C)c2cc(C(=O)Nc3ccc(C(=O)O)cc3)ccc21
OUTPUT: 100%

INPUT: Now this one: NC(CO)(CO)CO
OUTPUT: 93.3%

These entries and their values trace back to the supplement of paper PMC13380429.
